Reported %Inh is given for each of the following compounds.
Tested on: GRK3;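 also: KINOMEscan kinase panel screen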
Construct: gene ADRBK2
Details: concentration: 1 μM, replicates: in singlicate; n = 1

| compound | %Inh / % |
| --- | --- |
| CSc1ccc(NC2=C(c3ccccc3Cl)C(=O)NC2=O)cc1 | 0 |
| Nc1nc(-c2ccc3c(N)n[nH]c3c2)cc(N2CCC[C@@H](C(=O)Nc3ccccc3)C2)n1.O=C(O)C(F)(F)F.O=C(O)C(F)(F)F | 0 |
| CCCc1ccc(S(=O)(=O)NC2CCN(c3ccnc(Nc4ccc(OC)cc4)n3)C2)cc1 (stereo not shown) | 67 |
| COc1cc2ncnc(Nc3ccc(OCc4ccccc4Br)c(Cl)c3)c2cc1OC.Cl | 41 |
